Kindly state MIC for each of the entries shown.
# Test system: Streptococcus pyogenes
# assay_protocol: Antibacterial activity against erythromycin-susceptible Streptococcus pyogenes A3 by broth microdilution method
# Assay type: functional

[[record]]
line_notation = "CC[C@H]1OC(=O)[C@H](C)C(=O)[C@H](C)[C@@H](O[C@@H]2O[C@H](C)C[C@H](N(C)C)[C@H]2O)[C@](C)(OC)C[C@@H](C)/C(=N\\OCCCc2cncc3ccccc23)[C@H](C)[C@H]2OC(=O)O[C@@]21C"
result = "0.016 µg/mL"

[[record]]
line_notation = "CC[C@H]1OC(=O)[C@H](C)C(=O)[C@H](C)[C@@H](O[C@@H]2O[C@H](C)C[C@H](N(C)C)[C@H]2O)[C@](C)(OC)C[C@@H](C)/C(=N\\OCC#Cc2ccc3ncccc3c2)[C@H](C)[C@H]2OC(=O)O[C@@]21C"
result = "≤ 0.008 µg/mL"

[[record]]
line_notation = "CC[C@H]1OC(=O)[C@H](C)C(=O)[C@H](C)[C@@H](O[C@@H]2O[C@H](C)C[C@H](N(C)C)[C@H]2O)[C@](C)(OC)C[C@@H](C)/C(=N\\OCCCc2cnc3ccccc3c2)[C@H](C)[C@H]2OC(=O)O[C@@]21C"
result = "0.016 µg/mL"


Lab note: next compound to report on.
[in] I'd like to know its MIC. The compound in question is "CC[C@H]1OC(=O)[C@H](C)C(=O)[C@H](C)[C@@H](O[C@@H]2O[C@H](C)C[C@H](N(C)C)[C@H]2O)[C@](C)(OC)C[C@@H](C)/C(=N\OCC#Cc2cncnc2)[C@H](C)[C@H]2OC(=O)O[C@@]21C"
[out] 0.016 µg/mL

----------
# Tested on: Streptococcus pyogenes
# assay_protocol: Antibacterial activity against erythromycin-susceptible Streptococcus pyogenes A3 by broth microdilution method
# Type: functional
attribute_measured: MIC (µg/mL)
One number for each entry, in µg/mL.

[[record]]
line_notation = "CC[C@H]1OC(=O)[C@H](C)[C@@H](O[C@H]2C[C@@](C)(OC)[C@@H](O)[C@H](C)O2)[C@H](C)[C@@H](O[C@@H]2O[C@H](C)C[C@H](N(C)C)[C@H]2O)[C@](C)(OC)C[C@@H](C)C(=O)[C@H](C)[C@@H](O)[C@]1(C)O"
readout_unit = "µg/mL"
numeric_result = 0.032


[in] I'd like to know its MIC. The compound in question is "CC[C@H]1OC(=O)[C@H](C)C(=O)[C@H](C)[C@@H](O[C@@H]2O[C@H](C)C[C@H](N(C)C)[C@H]2O)[C@](C)(OC)C[C@@H](C)/C(=N\OCC#Cc2ccc3[nH]ccc3c2)[C@H](C)[C@H]2OC(=O)O[C@@]21C"
[out] 0.5

----------
# Test system: Streptococcus pyogenes
# assay_protocol: Antibacterial activity against erythromycin-susceptible Streptococcus pyogenes A3 by broth microdilution method
# Assay type: functional
attribute_measured: MIC

Provide the reported MIC of each entry below, same order.
1. CC[C@H]1OC(=O)[C@H](C)C(=O)[C@H](C)[C@@H](O[C@@H]2O[C@H](C)C[C@H](N(C)C)[C@H]2O)[C@](C)(OC)C[C@@H](C)/C(=N\OCC#Cc2cccs2)[C@H](C)[C@H]2OC(=O)O[C@@]21C
2. CC[C@H]1OC(=O)[C@H](C)C(=O)[C@H](C)[C@@H](O[C@@H]2O[C@H](C)C[C@H](N(C)C)[C@H]2O)[C@](C)(OC)C[C@@H](C)/C(=N\OCC#Cc2ccccn2)[C@H](C)[C@H]2OC(=O)O[C@@]21C
3. CC[C@H]1OC(=O)[C@H](C)C(=O)[C@H](C)[C@@H](O[C@@H]2O[C@H](C)C[C@H](N(C)C)[C@H]2O)[C@](C)(OC)C[C@@H](C)/C(=N\OCC#Cc2cnc3ccccc3c2)[C@H](C)[C@H]2OC(=O)O[C@@]21C

[out]
0.25 µg/mL
≤ 0.008 µg/mL
≤ 0.008 µg/mL

----------
Kindly state MIC for each of the entries shown.
# Test system: Streptococcus pneumoniae
# assay_protocol: Antibacterial activity against erythromycin-sensitive Streptococcus pneumoniae ATCC 49619 by broth microdilution method
# Format: functional

// known answers, use as guide
[[record]]
line_notation = "CC[C@H]1OC(=O)[C@H](C)C(=O)[C@H](C)[C@@H](O[C@@H]2O[C@H](C)C[C@H](N(C)C)[C@H]2O)[C@](C)(OC)C[C@@H](C)/C(=N\\OCC#Cc2ccc(-c3ccccn3)s2)[C@H](C)[C@H]2OC(=O)O[C@@]21C"
result = "≤ 0.008 µg/mL"

[[record]]
line_notation = "CC[C@H]1OC(=O)[C@H](C)C(=O)[C@H](C)[C@@H](O[C@@H]2O[C@H](C)C[C@H](N(C)C)[C@H]2O)[C@](C)(OC)C[C@@H](C)/C(=N\\OCC#Cc2ccc(C(=O)c3ccccc3)s2)[C@H](C)[C@H]2OC(=O)O[C@@]21C"
result = "0.125 µg/mL"

[[record]]
line_notation = "CC[C@H]1OC(=O)[C@H](C)[C@@H](O[C@H]2C[C@@](C)(OC)[C@@H](O)[C@H](C)O2)[C@H](C)[C@@H](O[C@@H]2O[C@H](C)C[C@H](N(C)C)[C@H]2O)[C@](C)(OC)C[C@@H](C)C(=O)[C@H](C)[C@@H](O)[C@]1(C)O"
result = "0.032 µg/mL"


Lab note: next molecule to report on.
[in] I'd like to know its MIC. The molecule in question is "CC[C@H]1OC(=O)[C@H](C)C(=O)[C@H](C)[C@@H](O[C@@H]2O[C@H](C)C[C@H](N(C)C)[C@H]2O)[C@](C)(OC)C[C@@H](C)/C(=N\OCC#Cc2cncc3ccccc23)[C@H](C)[C@H]2OC(=O)O[C@@]21C"
[out] ≤ 0.008 µg/mL

----------
# Test system: Streptococcus pneumoniae
# assay_protocol: Antibacterial activity against erythromycin-sensitive Streptococcus pneumoniae ATCC 49619 by broth microdilution method
# Format: functional
Kindly state MIC for each of the entries shown.

[[record]]
line_notation = "CC[C@H]1OC(=O)[C@H](C)C(=O)[C@H](C)[C@@H](O[C@@H]2O[C@H](C)C[C@H](N(C)C)[C@H]2O)[C@](C)(OC)C[C@@H](C)/C(=N\\OCC#Cc2cccnc2)[C@H](C)[C@H]2OC(=O)O[C@@]21C"
result = "≤ 0.008 µg/mL"


Provide the reported MIC of each entry below, same order.
1. CC[C@H]1OC(=O)[C@H](C)C(=O)[C@H](C)[C@@H](O[C@@H]2O[C@H](C)C[C@H](N(C)C)[C@H]2O)[C@](C)(OC)C[C@@H](C)/C(=N\OC/C=C/c2cnc3ccccc3c2)[C@H](C)[C@H]2OC(=O)O[C@@]21C
2. CC[C@H]1OC(=O)[C@H](C)[C@@H](O[C@H]2C[C@@](C)(OC)[C@@H](O)[C@H](C)O2)[C@H](C)[C@@H](O[C@@H]2O[C@H](C)C[C@H](N(C)C)[C@H]2O)[C@](C)(O)C[C@@H](C)CN(C)[C@H](C)[C@@H](O)[C@]1(C)O
3. CC[C@H]1OC(=O)[C@H](C)C(=O)[C@H](C)[C@@H](O[C@@H]2O[C@H](C)C[C@H](N(C)C)[C@H]2O)[C@](C)(OC)C[C@@H](C)/C(=N\OCCCc2cncc3ccccc23)[C@H](C)[C@H]2OC(=O)O[C@@]21C
4. CC[C@H]1OC(=O)[C@H](C)C(=O)[C@H](C)[C@@H](O[C@@H]2O[C@H](C)C[C@H](N(C)C)[C@H]2O)[C@](C)(OC)C[C@@H](C)/C(=N\OCC#Cc2ccccn2)[C@H](C)[C@H]2OC(=O)O[C@@]21C
5. CC[C@H]1OC(=O)[C@H](C)C(=O)[C@H](C)[C@@H](O[C@@H]2O[C@H](C)C[C@H](N(C)C)[C@H]2O)[C@](C)(OC)C[C@@H](C)/C(=N\OCC#Cc2cccs2)[C@H](C)[C@H]2OC(=O)O[C@@]21C
6. CC[C@H]1OC(=O)[C@H](C)C(=O)[C@H](C)[C@@H](O[C@@H]2O[C@H](C)C[C@H](N(C)C)[C@H]2O)[C@](C)(OC)C[C@@H](C)/C(=N\OCC#Cc2ccc3[nH]ccc3c2)[C@H](C)[C@H]2OC(=O)O[C@@]21C
7. CC[C@H]1OC(=O)[C@H](C)C(=O)[C@H](C)[C@@H](O[C@@H]2O[C@H](C)C[C@H](N(C)C)[C@H]2O)[C@](C)(OC)C[C@@H](C)/C(=N\OCC#Cc2ccnc3ccccc23)[C@H](C)[C@H]2OC(=O)O[C@@]21C

[out]
["0.016 µg/mL", "0.25 µg/mL", "0.032 µg/mL", "≤ 0.008 µg/mL", "0.25 µg/mL", "0.5 µg/mL", "0.016 µg/mL"]
